- target.under.test: human CCR5 (Homo sapiens, UniProt P51681)
- Sequence (P51681 whole entry): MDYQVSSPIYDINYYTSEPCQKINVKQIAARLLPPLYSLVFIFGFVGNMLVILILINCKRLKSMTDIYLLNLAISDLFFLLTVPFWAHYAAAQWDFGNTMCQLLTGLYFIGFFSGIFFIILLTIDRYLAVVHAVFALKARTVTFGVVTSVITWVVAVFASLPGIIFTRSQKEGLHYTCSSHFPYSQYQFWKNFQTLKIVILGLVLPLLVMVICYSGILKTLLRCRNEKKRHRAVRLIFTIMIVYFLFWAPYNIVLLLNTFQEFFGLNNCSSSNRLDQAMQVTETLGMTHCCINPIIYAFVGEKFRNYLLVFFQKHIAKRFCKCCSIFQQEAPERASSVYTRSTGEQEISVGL
- procedure.text: Inhibition of 125I-MIP-1beta binding to human T cells (human CCR5)
- Set-up: hPBMCs and human T cells were isolated from human leukopak; endogenous in cells; host or cells: human T cells isolated from human leukopak
- details: human pharmacology, 125I-human MIP-1beta, read-out: CCR5 Potency, binding on CCR5-expressing cells (displacing 125I-labelled ligand)
assay.metric: pIC50
Numbers only, as −log10 of the molar value.

Tell me the measured pIC50 of CC(=O)N[C@@H]1C[C@H](NC(C)(C)C)CC[C@@H]1N1CC[C@H](Nc2ncnc3cc(C(C)(C)C)nn23)C1=O [Compound C] , please.
8.44

---

- target.under.test: human CCR2 (Homo sapiens, UniProt P41597)
- Sequence (P41597 whole entry): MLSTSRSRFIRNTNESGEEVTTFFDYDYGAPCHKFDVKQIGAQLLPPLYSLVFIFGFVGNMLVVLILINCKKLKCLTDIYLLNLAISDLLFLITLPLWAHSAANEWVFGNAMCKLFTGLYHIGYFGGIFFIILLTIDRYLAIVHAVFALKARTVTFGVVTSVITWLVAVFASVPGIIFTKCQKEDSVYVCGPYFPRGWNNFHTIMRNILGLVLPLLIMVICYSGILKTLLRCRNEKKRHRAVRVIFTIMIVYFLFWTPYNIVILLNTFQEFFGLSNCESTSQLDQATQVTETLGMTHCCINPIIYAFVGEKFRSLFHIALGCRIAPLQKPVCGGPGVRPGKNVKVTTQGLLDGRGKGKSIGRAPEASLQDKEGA
- procedure.text: Human CCR2-mediated CD11b integrin upregulation in whole blood
- Type: cell-based
- details: human pharmacology, MCP-1 10 nM, read-out: CCR2 Potency, ligand-induced integrin upregulation in whole blood
assay.metric: IC50 (nM)
Numbers only, in nM.

Field request: IC50 | item: CC(=O)N[C@@H]1C[C@H](NC(C)(C)C)CC[C@@H]1N1CC[C@H](Nc2ncnc3cc(C(C)(C)C)nn23)C1=O [Compound C]
4.8

---

- target.under.test: human CCR2 (Homo sapiens)
- procedure.text: Human CCR2-mediated calcium flux in THP-1 cells
- Type: cell-based
- Set-up: established with the human monocytic cell line, THP-1; endogenous in cells; host or cells: THP-1 human monocytic cell line
- details: human pharmacology, human MCP-1 10 nM, read-out: CCR2 Potency, ligand-induced calcium flux in cells
assay.metric: IC50 (nM)
One number for each entry, in nM.

Consider the molecule CC(=O)N[C@@H]1C[C@H](NC(C)(C)C)CC[C@@H]1N1CC[C@H](Nc2ncnc3cc(C(C)(C)C)nn23)C1=O [Compound C] and give its measured IC50.
2.9
